meta.source: patent US9012431B2

Item-by-item account of IC50
- System: IL-10
- assay.text: Cytokine assay, IL-10 release from PBMC
- Type: cell-based
- condition.description: human PBMC, 20 ug/mL PHA, supernatant at 48 hours
Where a name gives a salt, the structure may show the parent alone.

Some solved entries appear below for comparison.
compound | IC50
N#Cc1ccc(COc2ccc3c(c2)COB3O)cc1 [D1] | > 10 µM
N#Cc1ccc(Oc2ccc3c(c2)COB3O)c(CN)c1 [D26, hydrochloride] | > 10 µM
N#Cc1ccc(Oc2ccc3c(c2)COB3O)nc1OCC(F)F | < 1 µM

**Q:** Looking for the measured IC50 of N#Cc1ccc(Oc2ccc3c(c2)COB3O)cc1Cl [D2] , can you help?
**A:** > 10 µM

**Q:** Looking for the measured IC50 of CCCOc1nc(Oc2ccc3c(c2)COB3O)ccc1C#N , can you help?
**A:** < 1 µM

**Q:** Looking for the measured IC50 of N#Cc1ccc(Oc2ccc3c(c2)COB3O)nc1OCC(F)(F)F , can you help?
**A:** < 1 µM
